Values compiled from patent US20170088617A1.

Examples of binders with documented Kd follow.
Target: T1, cynomolgus CD33 on the recombinant HEK293-cynomolgusCD33 cell line (cynomolgus, UniProt A0A7N9ICR5 17-359)
T1 construct: whole, on cells
Assay: FACS Scatchard analysis on HEK293-cynomolgusCD33 cells
Experimental: Fourteen CD33 binding agents (fully human monoclonal antibodies as listed in table 1 as No. 1-14, respectively) to human and cynomolgus CD33 were determined by FACS Scatchard analysis as described in Brockhoff et al., (Cytometry. 1994 Sep. 1; 17(1):75-83) on CD33 expressing cells (AML-derived HL60 cell line, recombinant HEK293-cynomolgusCD33 cell line). […] All samples were measured using the same FACS parameters. […]

# binder, Kd (pM)
data = [
    ("283-07-03 (antibody, human IgG1, kappa, V domains shown, Fully human monoclonal antibody; also called No 12; Clone ID# 283-07-03) VH: QVELVQSGAEVKKPGSSVKVSCKASGGTFSSYAISWVRQAPGQGLEWMGRIIPILGMANYAQKFQGRVTITADKSTYTAYMELSSLRSEDTAVYYCAREGGVDWYFDLWGRGTLVTVSS VL: DIQLTQSPSSLSASVGDRVTITCRASQGISSALAWYQQKPGKAPKFMIYDASSLESGVPSRFSGSGSGTDFTLTISSLQPEDFATYYCQQFNSSITFGQGTKLEIKR", 2100),
    ("283-03-03 (antibody, human IgG1, kappa, V domains shown, Fully human monoclonal antibody; also called No 10; Clone ID# 283-03-03) VH: QVELVQSGAEVKKPGSSVKVSCKASGGTFSSYAISWVRQAPGQGLEWMGRIIPILDMANYAQKFQGRVTITADKSTYTAYMELSSLRSEDTAVYYCAREGGVDWYFDLWGRGTLVTVSS VL: DIQLTQSPSSLSASVGDRVTITCRASQGISSALAWYQQKPGKAPKFMIYDASSLESGVPSRFSGSGSGTDFTLTISSLQPEDFATYYCQQFNSSITFGQGTKLEIKR", 1900),
    ("283-05-01 (antibody, human IgG1, kappa, V domains shown, Fully human monoclonal antibody; also called No 11; Clone ID# 283-05-01) VH: QVELVQSGAEVKKPGSSVKVSCKASEDTFSSYAISWVRQAPGQGLEWMGRIIPIIGIVNYAQKFQGRVTITADKSTYTAYMELSSLRSEDTAVYYCAREGGVDWYFDLWGRGTLVTVSS VL: DIQLTQSPSSLSASVGDRVTITCRASQGISSALAWYQQKPGKAPKFMIYDASSLESGVPSRFSGSGSGTDFTLTISSLQPEDFATYYCQQFNSSITFGQGTKLEIKR", 1100),
    ("283-14-01 (antibody, human IgG1, kappa, V domains shown, Fully human monoclonal antibody; also called No 14; Clone ID# 283-14-01) VH: QVQLVQSGAEVKKPGSSVKVSCKASGGTFSSYAISWVRQAPGQGLEWMGRIIPILGIANYAQKFQGRVTITADKSTYTAYMELSSLRSEDTAVYYCAREGGVDWYFDLWGRGTLVTVSS VL: DIQLTQSPSSLSASVGDRVTITCRASQGISSALAWYQQKPGKAPKFMIYDASSLESGVPSRFSGSGSGTDFTLTISSLQPEDFATYYCQQFNSSITFGQGTKLEIKR", 2300),
    ("280-29-12 (antibody, human IgG1, kappa, V domains shown, Fully human monoclonal antibody; also called No 3; Clone ID# 280-29-12) VH: QVQLVQSGTEVKKPGSSVKVSCKVSGDTFSSYAISWVRQAPGQGLEWMGRIIPIIGIANYAQKFQGRVTITADKSTSTAYMELSSLRSEDTAVYYCARHWLDAFDIWGQGTMVTVSS VL: DIQLTQSPSSLSASVGDRVTITCRASQGISSALAWSQQKPGKAPKLLIYDASSLESGVPSRFSGSGSGTDFTLTISSLQPEDFATYYCQQFNSSITFGQGTKLEIKR", 600),
    ("283-11-03 (antibody, human IgG1, kappa, V domains shown, Fully human monoclonal antibody; also called No 13; Clone ID# 283-11-03) VH: QVQLVQSGAEVKKPGSSMKVSCKASEDTFSSYAISWVRQAPGQGLEWMGRIIPIIGIVNYAQKFQGRVTITADKSTCTAYMELTSLRSEDTAVYYCAREGGVDWYFDLWGRGTLVTVSS VL: DIQLTQSPSSLSASVGDRVTITCRASQGISSALAWYQQKPGKAPKFMIYDASSLESGVPSRFSGSGSGTDFTLTISSLQPEDFATYYCQQFNSSITFGQGTKLEIKR", 600),
    ("280-31-01 (antibody, human IgG1, kappa, V domains shown, Fully human monoclonal antibody; also called No 4; Clone ID# 280-31-01) VH: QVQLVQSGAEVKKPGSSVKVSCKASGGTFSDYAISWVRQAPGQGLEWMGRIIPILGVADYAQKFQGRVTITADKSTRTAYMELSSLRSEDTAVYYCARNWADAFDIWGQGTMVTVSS VL: DIQLTQSPSSLSASVGDRVTITCRASQGISSVLAWYQQKPGKAPKLLIYDASSLESGVPSRFSGSGSGTDFTLTISSLQPEDFATYYCQQFNSSITFGQGTKLEIKR", 300),
    ("280-21-09 (antibody, human IgG1, kappa, V domains shown, Fully human monoclonal antibody; also called No 2; Clone ID# 280-21-09) VH: QVQLVQSGAEVKKPGSSVKVSCKASGDTFSSYAISWVRQAPGQGLEWMGRIIPIINIASYAQNFQGRVTITADKSTNTAYMELSSLRSEDTAVYYCARNWADAFDIWGQGTMVTVSS VL: DIQLTQSPSSLSASVGDRVTITCRASQGISSALAWYQQKPGKAPKLLIYDASSLESGVPSRFSGSGSGTDFTLTISSLQPEDFATYYCQQFNSSITFGQGTKLEIKR", 300),
    ("280-03-08 (antibody, human IgG1, kappa, V domains shown, Fully human monoclonal antibody; also called No 1; Clone ID# 280-03-08) VH: QVQLVQSGAEVKKPGSSVKVSCKASGGTFSDYAISWVRQAPGQGLEWMGRIIPILGVANYAQKFQGRVTITADKSTRTAYMELSSLRSEDTAVYYCARNWADAFDIWGQGTMVTVSS VL: DIQLTQSPSSLSASVGDRVTITCRASQGISSVLAWYQQKPGKAPKLLIYDASSLESGVPSRFSGSGSGTDFTLTISSLQPEDFATYYCQQFNSSITFGQGTKLEIKR", 30),
]
